Test system: HCT-116
Test: Antiproliferative activity against human HCT116 cells after 48 hrs by MTT assay
Format: functional, cell-based
Settings: HCT-116, 48 h
pIC50: −log10 of the molar value.
Listing of recorded pIC50 by entry.
property_name: pIC50

| input_smiles | rel | number |
| --- | --- | --- |
| COc1ccc(NC(=O)[C@H](Cc2ccc(OCC(=O)NO)cc2)NC(=O)Cc2ccccc2)cc1 | < | 4.00 |
| COc1ccc(NC(=O)[C@H](Cc2ccc(OCC(=O)NO)cc2)NC(=O)CCc2ccccc2)cc1 | = | 5.20 |
| COc1ccc(NC(=O)[C@H](Cc2ccc(OCC(=O)NO)cc2)NC(=O)c2ccccc2)cc1 | = | 5.82 |
| COc1ccc(NC(=O)[C@H](Cc2ccc(OCC(=O)NO)cc2)NC(=O)CCCc2ccccc2)cc1 | = | 4.24 |

* * *

// reported IC50 per item
Biological target: Histone deacetylase
Test: Inhibition of HDAC in human HeLa cell nuclear extract using fluorogenic Boc-Lys (acetyl)-AMC as substrate after 30 mins fluorescence assay
Assay type: protein assay
property_name: IC50

| input_smiles | tested_system | property_name | result |
| --- | --- | --- | --- |
| COc1ccc(NC(=O)[C@H](Cc2ccc(OCC(=O)NO)cc2)NC(=O)Cc2ccccc2)cc1 | Histone deacetylase | IC50 | 1230 nM |
| COc1ccc(NC(=O)[C@H](Cc2ccc(OCC(=O)NO)cc2)NC(=O)c2ccccc2)cc1 | Histone deacetylase | IC50 | 358 nM |
| COc1ccc(NC(=O)[C@H](Cc2ccc(OCC(=O)NO)cc2)NC(=O)CCc2ccccc2)cc1 | Histone deacetylase | IC50 | 889 nM |
| COc1ccc(NC(=O)[C@H](Cc2ccc(OCC(=O)NO)cc2)NC(=O)CCCc2ccccc2)cc1 | Histone deacetylase | IC50 | 1320 nM |

* * *

Target or system Histone deacetylase 8 (Homo sapiens, UniProt Q9BY41): recorded pIC50 listed per item.
pIC50: −log10 of the molar value.

| input_smiles | pIC50 |
| --- | --- |
| COc1ccc(NC(=O)[C@H](Cc2ccc(OCC(=O)NO)cc2)NCCCc2ccccc2)cc1 | 6.04 |
| O=C(COc1ccc(C[C@H](NC(=O)OCc2ccccc2)C(=O)Nc2cccc(Cl)c2)cc1)NO | 6.67 |
| COc1ccc(NC(=O)[C@H](Cc2ccc(OCC(=O)NO)cc2)NCc2ccccc2)cc1 | 5.93 |
| COc1ccc(NC(=O)[C@H](Cc2ccc(OCC(=O)NO)cc2)NC(=O)CCCc2ccccc2)cc1 | 7.07 |
| CC(C)(C)OC(=O)N[C@@H](Cc1ccc(OCC(=O)NO)cc1)C(=O)Nc1ccccc1 | 6.64 |
| O=C(COc1ccc(C[C@H](NC(=O)CCc2ccccc2)C(=O)Nc2ccccc2)cc1)NO | 6.82 |
